# system: human GRK5 (Homo sapiens (Human))
Listing of entries alongside the reported IC50.

Cc1[nH]c(/C=C2\C(=O)Nc3ccc(C(=O)N[C@H]4CCc5ccccc54)cc32)c(C)c1NC(=O)C(O)c1ccco1 (stereo partly drawn); 1000 to 10000 nM
Cc1[nH]c(/C=C2\C(=O)Nc3ccc(C(=O)N[C@H](C)c4ccc(F)cc4)cc32)c(C)c1NC(=O)c1ccoc1; 1 to 100 nM
Cc1[nH]c(/C=C2\C(=O)Nc3ccc(C(=O)N[C@H](C)c4ccccc4)cc32)c(C)c1C(=O)N[C@H]1c2ccccc2C[C@@H]1O; 101 to 999 nM
Cc1[nH]c(/C=C2\C(=O)Nc3ccc(C(=O)N[C@H](C)c4ccccc4)cc32)c(C)c1C(=O)N[C@@H]1c2ccccc2C[C@H]1O; 101 to 999 nM
Cc1[nH]c(/C=C2\C(=O)Nc3ccc(C(=O)N[C@H](C)c4ccccc4)cc32)c(C)c1C(=O)NC1c2ccccc2OCC1O (stereo partly drawn); 101 to 999 nM

Attention now shifts to the item below.
// lookup IC50 for COc1cccc(C(O)C(=O)Nc2c(C)[nH]c(/C=C3\C(=O)Nc4ccc(C(=O)N[C@H](C)c5ccc(F)cc5)cc43)c2C)c1 (stereo partly drawn)
101 to 999 nM

###

Listing of entries alongside the reported pIC50.
# system: bovine GRK2 (Bos taurus (Bovine))
# Sequence (P21146 whole entry): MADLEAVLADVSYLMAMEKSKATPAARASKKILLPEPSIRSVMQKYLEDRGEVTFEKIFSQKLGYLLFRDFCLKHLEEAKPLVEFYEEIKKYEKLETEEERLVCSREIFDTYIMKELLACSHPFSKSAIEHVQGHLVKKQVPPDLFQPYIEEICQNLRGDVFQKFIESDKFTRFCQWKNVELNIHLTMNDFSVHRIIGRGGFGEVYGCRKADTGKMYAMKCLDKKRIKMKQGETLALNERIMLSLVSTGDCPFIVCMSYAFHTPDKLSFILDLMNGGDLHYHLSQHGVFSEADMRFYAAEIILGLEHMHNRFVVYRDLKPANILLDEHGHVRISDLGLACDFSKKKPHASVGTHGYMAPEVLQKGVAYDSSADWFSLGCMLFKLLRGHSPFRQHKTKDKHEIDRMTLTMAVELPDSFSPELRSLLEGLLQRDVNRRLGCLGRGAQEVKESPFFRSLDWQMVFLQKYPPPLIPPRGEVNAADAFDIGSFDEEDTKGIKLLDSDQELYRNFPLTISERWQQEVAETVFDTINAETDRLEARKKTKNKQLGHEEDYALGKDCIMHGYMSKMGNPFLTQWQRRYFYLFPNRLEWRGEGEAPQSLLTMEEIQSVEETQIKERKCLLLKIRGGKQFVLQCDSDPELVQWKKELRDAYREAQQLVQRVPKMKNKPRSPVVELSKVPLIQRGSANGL
# test-method-notes: GRK2 radiometric inhibition assay (tubulin phosphorylation, [γ-32P]-ATP)
# Assay type: biochemical
# measurement-setup: 50 nM GRK, 500 nM tubulin, 5 μM ATP
pIC50: −log10 of the molar value.

// fetch bovine GRK2 (Bos taurus (Bovine)) pIC50 for Cc1[nH]c(/C=C2\C(=O)Nc3ccc(C(=O)N[C@H](C)c4ccccc4)cc32)c(C)c1C(=O)NCC1CCOC1 (mixture of isomers)
5.00 to 6.00

// fetch bovine GRK2 (Bos taurus (Bovine)) pIC50 for Cc1[nH]c(/C=C2\C(=O)Nc3ccc(C(=O)N[C@H](C)c4ccccc4)cc32)c(C)c1C(=O)NC1c2ccccc2OCC1O (stereo partly shown)
< 5.00

// fetch bovine GRK2 (Bos taurus (Bovine)) pIC50 for Cc1[nH]c(/C=C2\C(=O)Nc3ccc(C(=O)N[C@@H]4CCc5ccccc54)cc32)c(C)c1NC(=O)C(O)c1ccco1 (stereo partly shown)
< 5.00

// fetch bovine GRK2 (Bos taurus (Bovine)) pIC50 for Cc1[nH]c(/C=C2\C(=O)Nc3ccc(C(=O)N[C@H](C)c4ccccc4)cc32)c(C)c1C(=O)NCC1CCCO1 (stereo partly shown)
5.00 to 6.00

// fetch bovine GRK2 (Bos taurus (Bovine)) pIC50 for Cc1[nH]c(/C=C2\C(=O)Nc3ccc(C(=O)N[C@H](C)c4ccccc4)cc32)c(C)c1C(=O)NCC(O)c1ccco1 (stereo partly shown)
5.00 to 6.00

// fetch bovine GRK2 (Bos taurus (Bovine)) pIC50 for "Cc1[nH]c(/C=C2\C(=O)Nc3ccc(C(=O)N[C@@H]4CCc5ccccc54)cc32)c(C)c1NC(=O)C(=O)c1ccco1"
< 5.00

// fetch bovine GRK2 (Bos taurus (Bovine)) pIC50 for Cc1[nH]c(/C=C2\C(=O)Nc3ccc(C(=O)N[C@H](C)c4ccccc4)cc32)c(C)c1C(=O)NC1CCOC1 (mixture of isomers)
5.00 to 6.00

// fetch bovine GRK2 (Bos taurus (Bovine)) pIC50 for "Cc1[nH]c(/C=C2\C(=O)Nc3ccc(C(=O)N[C@H](C)c4ccccc4)cc32)c(C)c1C(=O)N[C@H]1c2ccccc2C[C@H]1O"
< 5.00

###

# system: human GRK5 (Homo sapiens (Human), UniProt P34947)
# Sequence (P34947 whole entry): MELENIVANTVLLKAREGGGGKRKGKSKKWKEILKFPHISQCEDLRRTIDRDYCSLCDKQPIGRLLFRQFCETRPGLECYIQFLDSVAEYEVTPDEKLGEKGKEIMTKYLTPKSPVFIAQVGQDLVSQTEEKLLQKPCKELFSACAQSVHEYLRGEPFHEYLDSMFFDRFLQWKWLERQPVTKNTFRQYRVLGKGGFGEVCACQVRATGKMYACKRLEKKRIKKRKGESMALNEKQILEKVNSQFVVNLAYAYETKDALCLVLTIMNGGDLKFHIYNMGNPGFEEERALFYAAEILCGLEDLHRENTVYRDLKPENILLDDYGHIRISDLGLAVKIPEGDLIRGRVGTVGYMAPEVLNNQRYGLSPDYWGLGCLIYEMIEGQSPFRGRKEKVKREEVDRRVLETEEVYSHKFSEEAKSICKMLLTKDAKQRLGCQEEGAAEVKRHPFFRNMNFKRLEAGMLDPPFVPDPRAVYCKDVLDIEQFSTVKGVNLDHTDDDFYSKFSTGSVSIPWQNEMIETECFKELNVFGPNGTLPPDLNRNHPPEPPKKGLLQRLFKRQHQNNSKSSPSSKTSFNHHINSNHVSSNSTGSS
pIC50: −log10 of the molar value.
readout-label: pIC50

Cc1[nH]c(/C=C2\C(=O)Nc3ccc(C(=O)N[C@H](C)c4ccc(F)cc4)cc32)c(C)c1NC(=O)C(O)c1ccoc1 (stereo partly drawn); 7.00 to 9.00
Cc1[nH]c(/C=C2\C(=O)Nc3ccc(C(=O)N[C@H](C)c4ccccc4)cc32)c(C)c1C(=O)NCC(O)c1ccco1 (stereo partly drawn); 7.00 to 9.00
Cc1[nH]c(/C=C2\C(=O)Nc3ccc(C(=O)N[C@H](C)c4ccccc4)cc32)c(C)c1C(=O)NC(C)c1ccco1 (stereo partly drawn); 7.00 to 9.00
Cc1[nH]c(/C=C2\C(=O)Nc3ccc(C(=O)N[C@H](C)c4ccccc4)cc32)c(C)c1C(=O)NCC(O)C1CCOC1 (stereo partly drawn); 7.00 to 9.00
Cc1[nH]c(/C=C2\C(=O)Nc3ccc(C(=O)N[C@H](C)c4ccccc4)cc32)c(C)c1C(=O)NC1CCOCC1; 5.00 to 6.00

// fetch human GRK5 (Homo sapiens (Human), UniProt P34947) pIC50 for Cc1[nH]c(/C=C2\C(=O)Nc3ccc(C(=O)N[C@H](C)c4ccc(F)cc4)cc32)c(C)c1C(=O)NCC1CCCO1 (mixture of isomers)
7.00 to 9.00

###

Listed here: compounds with reported IC50 for bovine GRK2 (Bos taurus (Bovine), UniProt P21146).

// lookup IC50 for Cc1[nH]c(/C=C2\C(=O)Nc3ccc(C(=O)N[C@H](C)c4ccccc4)cc32)c(C)c1C(=O)NCC1CC(=O)c2ccccc2O1 (some centres unmarked) [Compound 41]
> 10 µM

// lookup IC50 for Cc1[nH]c(/C=C2\C(=O)Nc3ccc(C(=O)N[C@H](C)c4ccccc4)cc32)c(C)c1C(=O)NC[C@@H]1CCCO1 [Compound 37]
1 to 10 µM

// lookup IC50 for Cc1[nH]c(/C=C2\C(=O)Nc3ccc(C(=O)N[C@H](C)c4ccc(F)cc4)cc32)c(C)c1C(=O)N[C@@H]1c2ccccc2C[C@H]1O [Compound 19]
> 10 µM

// lookup IC50 for Cc1[nH]c(/C=C2\C(=O)Nc3ccc(C(=O)N[C@H](C)c4ccccc4)cc32)c(C)c1C(=O)NC[C@H]1CCCO1 [Compound 36]
> 10 µM

// lookup IC50 for Cc1[nH]c(/C=C2\C(=O)Nc3ccc(C(=O)N[C@H](C)c4ccccc4)cc32)c(C)c1C(=O)Nc1nc2ccccc2[nH]1 [Compound 33]
1 to 10 µM
